Cited source for all entries: patent US10947271B2

Readings of % compound remaining after incubation in 50% human plasma for the listed compounds
# EXPERIMENTAL_PROTOCOL: Stability of compounds in human plasma
# PROTOCOL_CONDITIONS: 3 h, 50% human plasma/PBS pH 7.4, 37° C.
Give your result in % as a bare value.

compound="CCCCCCCCCCC(=O)N[C@@H](CCCCN)C(=O)N[C@@H](CCCCN)C(=O)N[C@@H](CCCCN)C(=O)N[C@@H](CCCCNC(=O)[C@H]1NC(=O)[C@H]2NC(=O)[C@H](NC(=O)[C@@H]3NC(=O)[C@H](CC(N)=O)NC(=O)[C@H](NC(=O)[C@@H](CC(C)C)NC)[C@H](O)c4ccc(c(Cl)c4)Oc4cc3cc(c4O[C@@H]3O[C@H](CO)[C@@H](O)[C@H](O)[C@H]3O[C@H]3C[C@](C)(N)[C@H](O)[C@H](C)O3)Oc3ccc(cc3Cl)[C@H]2O)c2ccc(O)c(c2)-c2c(O)cc(O)cc21)C(=O)O [MCC_000229, nC10CO-KKK-K(Vanc)-OH]" display_unit=% endpoint_result=87

State the recorded % compound remaining after incubation in 50% human plasma for this entry: CCCCCCCCCCCCCC(=O)N[C@H](CCCCN)C(=O)N[C@H](CCCCN)C(=O)NCC(=O)NCCNC(=O)[C@H]1NC(=O)[C@H]2NC(=O)[C@H](NC(=O)[C@@H]3NC(=O)[C@H](CC(N)=O)NC(=O)[C@H](NC(=O)[C@@H](CC(C)C)NC)[C@H](O)c4ccc(c(Cl)c4)Oc4cc3cc(c4O[C@@H]3O[C@H](CO)[C@@H](O)[C@H](O)[C@H]3O[C@H]3C[C@](C)(N)[C@H](O)[C@H](C)O3)Oc3ccc(cc3Cl)[C@H]2O)c2ccc(O)c(c2)-c2c(O)cc(O)cc21 [MCC_000227, nC13CO-kkG-NHC2NH-Vanc]
102

----------
# Tested on: Enterococcus faecium MDR Van A ATCC 51559
# EXPERIMENTAL_PROTOCOL: MIC assay, E. faecium MDR Van A ATCC 51559
# Format: cell-based
# PROTOCOL_CONDITIONS: 24 h incubation, visual reading
MEASURED_PROPERTY: Minimum Inhibitory Concentration (MIC) E. faecium ATCC51559

compound="CCCCCCCCCCCCCCC(=O)NC(CCCCN)C(=O)NC(CCCCN)C(=O)NC(CCCCNC(=O)C1NC(=O)C2NC(=O)C(NC(=O)C3NC(=O)C(CC(N)=O)NC(=O)C(NC(=O)C(CC(C)C)NC)C(O)c4ccc(c(Cl)c4)Oc4cc3cc(c4OC3OC(CO)C(O)C(O)C3OC3CC(C)(N)C(O)C(C)O3)Oc3ccc(cc3Cl)C2O)c2ccc(O)c(c2)-c2c(O)cc(O)cc21)C(=O)NC (stereo not drawn)" endpoint_result="xxx (xxx = 0.1-<1)"
compound=CCCCCCCCCCCC(=O)N[C@@H](CCCCN)C(=O)N[C@@H](CCCCN)C(=O)NCCCNC(=O)[C@H]1NC(=O)[C@H]2NC(=O)[C@H](NC(=O)[C@@H]3NC(=O)[C@H](CC(N)=O)NC(=O)[C@H](NC(=O)[C@@H](CC(C)C)NC)[C@H](O)c4ccc(c(Cl)c4)Oc4cc3cc(c4O[C@@H]3O[C@H](CO)[C@@H](O)[C@H](O)[C@H]3O[C@H]3C[C@](C)(N)[C@H](O)[C@H](C)O3)Oc3ccc(cc3Cl)[C@H]2O)c2ccc(O)c(c2)-c2c(O)cc(O)cc21 endpoint_result="xxx (xxx = 0.1-<1)"

----------
# EXPERIMENTAL_PROTOCOL: Stability of compounds in human plasma
# PROTOCOL_CONDITIONS: 24 h, 50% human plasma/PBS pH 7.4, 37° C.
Readings of % compound remaining after incubation in 50% human plasma for the listed compounds
Kindly write the number and append the unit.

State the recorded % compound remaining after incubation in 50% human plasma for this entry: CCCCCCCCCCCCCC(=O)N[C@H](CCCCN)C(=O)N[C@H](CCCCN)C(=O)NCC(=O)NCCNC(=O)[C@H]1NC(=O)[C@H]2NC(=O)[C@H](NC(=O)[C@@H]3NC(=O)[C@H](CC(N)=O)NC(=O)[C@H](NC(=O)[C@@H](CC(C)C)NC)[C@H](O)c4ccc(c(Cl)c4)Oc4cc3cc(c4O[C@@H]3O[C@H](CO)[C@@H](O)[C@H](O)[C@H]3O[C@H]3C[C@](C)(N)[C@H](O)[C@H](C)O3)Oc3ccc(cc3Cl)[C@H]2O)c2ccc(O)c(c2)-c2c(O)cc(O)cc21 [MCC_000227, nC13CO-kkG-NHC2NH-Vanc]
94%

Now this one: CCCCCCCCCCC(=O)N[C@@H](CCCCN)C(=O)N[C@@H](CCCCNC(=O)[C@H]1NC(=O)[C@H]2NC(=O)[C@H](NC(=O)[C@@H]3NC(=O)[C@H](CC(N)=O)NC(=O)[C@H](NC(=O)[C@@H](CC(C)C)NC)[C@H](O)c4ccc(c(Cl)c4)Oc4cc3cc(c4O[C@@H]3O[C@H](CO)[C@@H](O)[C@H](O)[C@H]3O[C@H]3C[C@](C)(N)[C@H](O)[C@H](C)O3)Oc3ccc(cc3Cl)[C@H]2O)c2ccc(O)c(c2)-c2c(O)cc(O)cc21)C(=O)O [MCC_000080, nC10CO-K-K(Vanc)-OH]
89%

Now this one: CNC(CC(C)C)C(=O)NC1C(=O)NC(CC(N)=O)C(=O)NC2C(=O)NC3C(=O)NC(C(=O)NC(C(=O)NCCCCC(NC(=O)C(CCCCN)NC(=O)C(CCCCN)NC(=O)C(CCCCNC(=O)c4ccc(Oc5ccccc5)cc4)NC(=O)c4ccc(Oc5ccccc5)cc4)C(=O)O)c4cc(O)cc(O)c4-c4cc3ccc4O)C(O)c3ccc(c(Cl)c3)Oc3cc2cc(c3OC2OC(CO)C(O)C(O)C2OC2CC(C)(N)C(O)C(C)O2)Oc2ccc(cc2Cl)C1O (centres unmarked)
99%

Now this one: CCCCCCCCCCCCCC(=O)N[C@@H](CCCCN)C(=O)N[C@@H](CCCCN)C(=O)N[C@@H](CCCCN)C(=O)N[C@@H](CCCCNC(=O)[C@H]1NC(=O)[C@H]2NC(=O)[C@H](NC(=O)[C@@H]3NC(=O)[C@H](CC(N)=O)NC(=O)[C@H](NC(=O)[C@@H](CC(C)C)NC)[C@H](O)c4ccc(c(Cl)c4)Oc4cc3cc(c4O[C@@H]3O[C@H](CO)[C@@H](O)[C@H](O)[C@H]3O[C@H]3C[C@](C)(N)[C@H](O)[C@H](C)O3)Oc3ccc(cc3Cl)[C@H]2O)c2ccc(O)c(c2)-c2c(O)cc(O)cc21)C(=O)O [MCC_000223, nC13CO-KKK-K(Vanc)-OH]
139%

Now this one: CCCCCCCCCCCCCC(=O)N[C@@H](CCCCN)C(=O)N[C@@H](CCCCN)C(=O)NCC(=O)NCCNC(=O)[C@H]1NC(=O)[C@H]2NC(=O)[C@H](NC(=O)[C@@H]3NC(=O)[C@H](CC(N)=O)NC(=O)[C@H](NC(=O)[C@@H](CC(C)C)NC)[C@H](O)c4ccc(c(Cl)c4)Oc4cc3cc(c4O[C@@H]3O[C@H](CO)[C@@H](O)[C@H](O)[C@H]3O[C@H]3C[C@](C)(N)[C@H](O)[C@H](C)O3)Oc3ccc(cc3Cl)[C@H]2O)c2ccc(O)c(c2)-c2c(O)cc(O)cc21 [MCC_000226, nC13CO-KKG-NHC2NH-Vanc]
87%

----------
Readings of % compound remaining after incubation in 50% human plasma for the listed compounds
# EXPERIMENTAL_PROTOCOL: Stability of compounds in human plasma
# PROTOCOL_CONDITIONS: 3 h, 50% human plasma/PBS pH 7.4, 37° C.
Give your result in % as a bare value.

Solved entries:
compound="CCCCCCCCCCCCCC(=O)N[C@@H](CCCCN)C(=O)N[C@@H](CCCCN)C(=O)NCC(=O)NCCNC(=O)[C@H]1NC(=O)[C@H]2NC(=O)[C@H](NC(=O)[C@@H]3NC(=O)[C@H](CC(N)=O)NC(=O)[C@H](NC(=O)[C@@H](CC(C)C)NC)[C@H](O)c4ccc(c(Cl)c4)Oc4cc3cc(c4O[C@@H]3O[C@H](CO)[C@@H](O)[C@H](O)[C@H]3O[C@H]3C[C@](C)(N)[C@H](O)[C@H](C)O3)Oc3ccc(cc3Cl)[C@H]2O)c2ccc(O)c(c2)-c2c(O)cc(O)cc21 [MCC_000226, nC13CO-KKG-NHC2NH-Vanc]" display_unit=% endpoint_result=137
compound="CCCCCCCCCCCCCC(=O)N[C@@H](CCCCN)C(=O)N[C@@H](CCCCN)C(=O)N[C@@H](CCCCN)C(=O)N[C@@H](CCCCNC(=O)[C@H]1NC(=O)[C@H]2NC(=O)[C@H](NC(=O)[C@@H]3NC(=O)[C@H](CC(N)=O)NC(=O)[C@H](NC(=O)[C@@H](CC(C)C)NC)[C@H](O)c4ccc(c(Cl)c4)Oc4cc3cc(c4O[C@@H]3O[C@H](CO)[C@@H](O)[C@H](O)[C@H]3O[C@H]3C[C@](C)(N)[C@H](O)[C@H](C)O3)Oc3ccc(cc3Cl)[C@H]2O)c2ccc(O)c(c2)-c2c(O)cc(O)cc21)C(=O)O [MCC_000223, nC13CO-KKK-K(Vanc)-OH]" display_unit=% endpoint_result=164
compound="CN[C@H](CC(C)C)C(=O)N[C@H]1C(=O)N[C@@H](CC(N)=O)C(=O)N[C@H]2C(=O)N[C@H]3C(=O)NC(C(=O)N[C@H](C(=O)O)c4cc(O)cc(O)c4-c4cc3ccc4O)[C@H](O)c3ccc(c(Cl)c3)Oc3cc2cc(c3OC2OC(CO)C(O)C(O)C2OC2CC(C)(N)C(O)C(C)O2)Oc2ccc(cc2Cl)[C@H]1O (stereo partly shown) [MCC_000095, vancomycin, reference compound]" display_unit=% endpoint_result=145

Now examine the next entry.
State the recorded % compound remaining after incubation in 50% human plasma for this entry: CCCCCCCCCCC(=O)N[C@@H](CCCCN)C(=O)N[C@@H](CCCCNC(=O)[C@H]1NC(=O)[C@H]2NC(=O)[C@H](NC(=O)[C@@H]3NC(=O)[C@H](CC(N)=O)NC(=O)[C@H](NC(=O)[C@@H](CC(C)C)NC)[C@H](O)c4ccc(c(Cl)c4)Oc4cc3cc(c4O[C@@H]3O[C@H](CO)[C@@H](O)[C@H](O)[C@H]3O[C@H]3C[C@](C)(N)[C@H](O)[C@H](C)O3)Oc3ccc(cc3Cl)[C@H]2O)c2ccc(O)c(c2)-c2c(O)cc(O)cc21)C(=O)O [MCC_000080, nC10CO-K-K(Vanc)-OH]
101
